A collection of compounds and their measured pIC50
# Target System: CK1δ (Homo sapiens, UniProt P48730)
# Sequence (P48730 whole entry): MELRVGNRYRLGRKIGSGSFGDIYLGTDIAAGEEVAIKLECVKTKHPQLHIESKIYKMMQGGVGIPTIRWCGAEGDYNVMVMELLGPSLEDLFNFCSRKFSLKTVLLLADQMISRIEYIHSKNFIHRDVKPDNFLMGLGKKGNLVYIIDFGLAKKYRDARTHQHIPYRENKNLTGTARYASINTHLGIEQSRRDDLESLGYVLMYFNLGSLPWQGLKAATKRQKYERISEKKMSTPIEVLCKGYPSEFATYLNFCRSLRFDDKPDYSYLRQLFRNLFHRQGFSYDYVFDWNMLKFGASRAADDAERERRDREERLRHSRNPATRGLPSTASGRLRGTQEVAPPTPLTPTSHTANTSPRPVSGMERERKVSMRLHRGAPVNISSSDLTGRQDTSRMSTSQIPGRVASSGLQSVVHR
pIC50: −log10 of the molar value.
Readout: pIC50

>>> df
                              sample_smiles                        target_system  data_value
0  O=C(Nc1cn2nc(-c3c(-c4ccc(F)cc4)nn4c3CNCC4)ccc2n1)c1ccnc(-c2cccnc2)c1  CK1δ (Homo sapiens, UniProt P48730)        9.52
1  O=C(Nc1cn2nc(-c3c(-c4ccc(F)cc4)nn4c3CN(C(=O)NCCC(F)(F)F)CC4)ccc2n1)c1ccnc(F)c1  CK1δ (Homo sapiens, UniProt P48730)        9.15
2  O=C(Nc1cn2nc(-c3c(-c4ccc(F)cc4)noc3C3CCOCC3)ccc2n1)c1ccnc(F)c1  CK1δ (Homo sapiens, UniProt P48730)        8.85
3  O=C(Nc1cn2nc(-c3c(-c4ccc(F)cc4)nn4c3CCC4)ccc2n1)c1cc(F)nc(F)c1  CK1δ (Homo sapiens, UniProt P48730)        9.15
4  O=C(Nc1cn2nc(-c3c(-c4ccc(F)cc4)nn4c3CN(C(=O)c3cccc(F)c3)CC4)ccc2n1)c1ccnc(F)c1  CK1δ (Homo sapiens, UniProt P48730)        9.70
5  O=C(Nc1cn2nc(-c3c(-c4ccc(F)cc4)nn4c3CN(C(=O)c3ccc(F)c(F)c3)CC4)ccc2n1)c1ccnc(F)c1  CK1δ (Homo sapiens, UniProt P48730)        9.30
6  CC(=O)N1CCn2nc(-c3ccc(F)cc3)c(-c3ccc4nc(NC(=O)c5ccnc(F)c5)cn4n3)c2C1  CK1δ (Homo sapiens, UniProt P48730)        9.52
7  N#CCC(=O)N1CCn2nc(-c3ccc(F)cc3)c(-c3ccc4nc(NC(=O)c5ccnc(F)c5)cn4n3)c2C1  CK1δ (Homo sapiens, UniProt P48730)        9.40
8  O=C(Nc1cn2nc(-c3c(-c4ccc(F)cc4)nn4c3CN(C(=O)c3ccnc(F)c3)CC4)ccc2n1)c1ccnc(F)c1  CK1δ (Homo sapiens, UniProt P48730)        9.30
